- procedure summary: Inhibition of deoxycytidine kinase-mediated arabinoside C-induced cytotoxicity
Measured log10 EC50, listed per entry.
Hey, these are logged values: log10 of EC50, nM being the unit before logging.

>>> recorded_result("Nc1nc(=O)n([C@H]2CC[C@H](NS(=O)(=O)c3ccc(Br)cc3)C2)cc1F")
4.04
>>> recorded_result("Cc1cc(Cl)ccc1-c1cccc(C(=O)N[C@H]2CC[C@H](n3cc(F)c(N)nc3=O)C2)c1")
2.23
>>> recorded_result("Nc1nc(=O)n([C@H]2CC[C@H](NS(=O)(=O)c3cccc(-c4cccc(Cl)c4)c3)C2)cc1F")
2.56
>>> recorded_result("COc1ccc(-c2cccc(S(=O)(=O)N[C@H]3CC[C@H](n4cc(F)c(N)nc4=O)C3)c2)cc1")
2.48
>>> recorded_result("NC(=O)c1ccc(-c2cccc(S(=O)(=O)N[C@H]3CC[C@H](n4cc(F)c(N)nc4=O)C3)c2)cc1")
3.77
>>> recorded_result("CS(=O)(=O)c1ccc(-c2cccc(S(=O)(=O)N[C@H]3CC[C@H](n4cc(F)c(N)nc4=O)C3)c2)cc1")
3.26
>>> recorded_result("Nc1nc(=O)n([C@H]2CC[C@H](NS(=O)(=O)c3ccc(-c4ccccc4)cc3)C2)cc1F")
3.74

Indicate its recorded log10 EC50; the molecule in question is Cc1cc(Cl)ccc1-c1cccc(S(=O)(=O)N[C@H]2CC[C@H](n3cc(F)c(N)nc3=O)C2)c1
2.46

---

- procedure summary: Inhibition of deoxycytidine kinase-mediated arabinoside C-induced cytotoxicity
readout: pEC50
A value of pEC50 is the negative decimal logarithm of a concentration given in moles per litre.

Some compounds with recorded pEC50:
>>> recorded_result("Nc1nc(=O)n([C@H]2CC[C@H](NC(=O)c3cccc(-c4cccc(Cl)c4)c3)C2)cc1F")
6.74
>>> recorded_result("COc1ccc(-c2cccc(C(=O)N[C@H]3CC[C@H](n4cc(F)c(N)nc4=O)C3)c2)cc1")
7.00
>>> recorded_result("Nc1nc(=O)n([C@H]2CC[C@H](NS(=O)(=O)c3cccc(Br)c3)C2)cc1F")
5.55
>>> recorded_result("Nc1nc(=O)n([C@H]2CC[C@H](NS(=O)(=O)c3cccc(-c4ccc(Cl)cc4Cl)c3)C2)cc1F")
6.28
>>> recorded_result("Nc1nc(=O)n([C@H]2CC[C@H](NS(=O)(=O)c3ccc([N+](=O)[O-])cc3)C2)cc1F")
4.80

Indicate its recorded pEC50; the compound in question is Cc1ccc(-c2cccc(S(=O)(=O)N[C@H]3CC[C@H](n4cc(F)c(N)nc4=O)C3)c2)cc1
6.30

Indicate its recorded pEC50; the compound in question is Nc1nc(=O)n([C@H]2CC[C@H](NS(=O)(=O)c3cccc(-c4ccccc4)c3)C2)cc1F
6.22

Indicate its recorded pEC50; the compound in question is Nc1nc(=O)n([C@H]2CC[C@H](NS(=O)(=O)c3cccc(-c4ccccc4Cl)c3)C2)cc1F
6.37

---

- procedure summary: Inhibition of deoxycytidine kinase-mediated arabinoside C-induced cytotoxicity
Measured pEC50, listed per entry.
A value of pEC50 is the negative decimal logarithm of a concentration given in moles per litre.

Some compounds with recorded pEC50:
>>> recorded_result("Nc1nc(=O)n([C@H]2CC[C@H](NS(=O)(=O)c3ccccc3)C2)cc1F")
4.77
>>> recorded_result("N#Cc1ccc(-c2cccc(S(=O)(=O)N[C@H]3CC[C@H](n4cc(F)c(N)nc4=O)C3)c2)cc1")
6.41
>>> recorded_result("Nc1nc(=O)n([C@H]2CC[C@H](NS(=O)(=O)c3cccc(-c4ccc(Cl)cc4)c3)C2)cc1F")
6.62
>>> recorded_result("Nc1nc(=O)n([C@H]2CC[C@H](NC(=O)c3cccc(-c4ccccc4)c3)C2)cc1F")
6.04

Indicate its recorded pEC50; the compound in question is Nc1nc(=O)n([C@H]2CC[C@H](NC(=O)c3cccc(-c4ccc(Cl)cc4)c3)C2)cc1F
6.57

Where these numbers come from: BindingDB's records for doi:10.1016/j.bmcl.2009.09.081
